Values from PubChem BioAssay AID248

test system: L1210 leukemia ip in BDF1 mice, survival T/C; experiment: NCI In Vivo Anticancer Drug Screen. Data for tumor model L1210 Leukemia (intraperitoneal) in B6D2F1 (BDF1) mice; conditions: endpoint: mean survival time; dose: 400.0 mg/kg/injection; schedule: Q01DX001 (ip); vehicle: Klucel (hydroxypropylcellulose) (HPC); higher = longer survival
Toxic doses and inconclusive results are not listed. Peptide text beside a SMILES is read from it. * marks the point of attachment. Cbz = O=C(OCc1ccccc1)*; CH2Cl = ClC*
Item-by-item account of T/C

Example compounds with recorded T/C:
Compound | T/C
CC1/C(=N\O)CC2C3(C)CCC2(C(C)C(=O)O)C(=O)C13 (stereo not given) | 92 % of control
CCOC(=O)c1[nH]c(-c2ccc(OC)cc2)c(C(=O)OCC)c1-c1ccccc1 | 114 % of control
O=C(OC1CCC2CC21)c1ccc([N+](=O)[O-])cc1[N+](=O)[O-] (stereo not given) | 106 % of control
CCCCCCCCCCCCCCCCNS(=O)(=O)c1ccc(Br)cc1 | 96 % of control
CC(C)NC(=O)c1ccccc1 | 101 % of control
CC(C)CC(NC(=O)OCc1ccccc1)C(=O)NC(Cc1ccccc1)C(=O)CCl (stereo not drawn) (Cbz-Leu-Phe-CH2Cl; configuration not given here) | 103 % of control
CCOC(=O)c1[nH]c(COC(C)=O)c(CCC(=O)O)c1C | 88 % of control
O=c1cc(CCCCCc2ccccc2)[nH]c(=O)[nH]1 | 101 % of control

Request: Can you look up the measured T/C of CCn1c(C)nc2cc(S(=O)(=O)C(F)(F)C(F)Cl)ccc21 (stereo not given) for me?
Result: 97 % of control

Request: What does the data say about its T/C? Entry: NC(=O)N/N=C1/CCSc2ccc3c(c21)CCCC3
Result: 94 % of control

====

system: L1210 leukemia ip in BDF1 mice, survival T/C; assay: NCI In Vivo Anticancer Drug Screen. Data for tumor model L1210 Leukemia (intraperitoneal) in B6D2F1 (BDF1) mice; details: endpoint: mean survival time; dose: 200.0 mg/kg/injection; schedule: Q04DX003 (ip); vehicle: saline; higher = longer survival
Toxic doses and inconclusive results are not listed.
Endpoint Name: T/C

Below are worked cases with known answers.
Compound | T/C
CCOC(=O)N1Cc2cc3cc4c(cc3nc2C1)OCO4 | 94 % of control
O=S(=O)(O)C(O)c1ccc(Cl)cc1Cl (stereo not drawn) | 102 % of control
CCC(C(N)=O)N1C(=O)C2C3CCC(O3)C2C1=O (stereo not drawn) | 97 % of control
O=C(O)CNCc1ccc(F)cc1 | 105 % of control
COc1ccc(/C=N/NC(=O)c2ccccc2OC)cc1 | 102 % of control

Request: Suppose we examine the compound Cc1nccnc1N ; what T/C value has been reported?
Result: 109 % of control

Request: Give the measured T/C of NC(=O)C(O)c1ccccc1 (stereo not drawn) .
Result: 94 % of control

Request: Returns the measured T/C for the input compound. Input: O=S(=O)(CC12CC1(O)C1CCC2C1)c1ccccc1 (stereo not drawn)
Result: 100 % of control

Request: Suppose we examine the compound CC1=NCCN=C(C)C1 ; what T/C value has been reported?
Result: 98 % of control

Request: Can you share its T/C? I mean this compound: CC(=O)NCCC(C)C
Result: 98 % of control

Request: Find the recorded T/C belonging to BrC1(Br)CC1(c1ccccc1)c1ccccc1 and report it.
Result: 107 % of control

Request: So what does the record say about T/C for c1ccc(Nc2ccc(Nc3ccccc3)cc2)cc1 ?
Result: 93 % of control

Request: Item under review: CC(=O)Nc1ccc[n+](C)c1 . Reported T/C?
Result: 105 % of control

Request: # lookup: T/C of Nc1ncnc2c1nnn2CCCCC(N)C(=O)O (stereo not drawn)
Result: 106 % of control

Request: // T/C lookup, key: N#CCCOCCOCCC#N
Result: 101 % of control

====

test system: L1210 leukemia ip in BDF1 mice, survival T/C; assay: NCI In Vivo Anticancer Drug Screen. Data for tumor model L1210 Leukemia (intraperitoneal) in B6D2F1 (BDF1) mice; details: endpoint: mean survival time; dose: 50.0 mg/kg/injection; schedule: Q01DX009 (ip); vehicle: Klucel (hydroxypropylcellulose) (HPC); higher = longer survival
Toxic doses and inconclusive results are not listed.
List of T/C values.

Request: Field: T/C (L1210 leukemia ip in BDF1 mice, survival T/C). Entry: O=C(NO)c1ccccc1
Result: 90 % of control

Request: Report T/C for CC(Cc1ccccc1)NC(C#N)c1ccccc1 (stereo not given) tested on L1210 leukemia ip in BDF1 mice, survival T/C.
Result: 91 % of control

Request: Form: Entry = CCN(CC)CCOc1cc(C)ccc1C(C)C | System = L1210 leukemia ip in BDF1 mice, survival T/C | T/C = ____
Result: 102 % of control

Request: API: value(readout=T/C, system=L1210 leukemia ip in BDF1 mice, survival T/C) for record COc1ccc(-c2nc(SCc3ccc(Cl)cc3)[nH]c(=O)c2CCO)cc1
Result: 95 % of control

Request: Entry CC(C)=CC(=O)NC(=O)NS(=O)(=O)c1ccc(Cl)cc1 , system L1210 leukemia ip in BDF1 mice, survival T/C: what T/C was measured?
Result: 100 % of control

====

tested on: L1210 leukemia ip in BDF1 mice, survival T/C; experiment: NCI In Vivo Anticancer Drug Screen. Data for tumor model L1210 Leukemia (intraperitoneal) in B6D2F1 (BDF1) mice; conditions: endpoint: mean survival time; dose: 5.0 mg/kg/injection; schedule: Q01DX001 (ip); vehicle: saline; higher = longer survival
Toxic doses and inconclusive results are not listed.
Endpoint Name: T/C

Request: // returns reported T/C for input Cc1nc(C#N)c(N)o1
Result: 103 % of control

Request: Need T/C, item C=C=C[P+](c1ccccc1)(c1ccccc1)c1ccccc1
Result: 104 % of control

Request: // lookup T/C for CC1CCC2N(C1)CC1C3(O)CC4(O)C(CCC5C(=O)C(O)CCC54C)C3(O)CC(O)C1(O)C2(C)O (stereo not drawn)
Result: 98 % of control

====

system: L1210 leukemia ip in BDF1 mice, survival T/C; assay: NCI In Vivo Anticancer Drug Screen. Data for tumor model L1210 Leukemia (intraperitoneal) in B6D2F1 (BDF1) mice; settings: endpoint: mean survival time; dose: 75.0 mg/kg/injection; schedule: Q01DX009 (ip); vehicle: Klucel (hydroxypropylcellulose) (HPC)
Inconclusive results and toxic doses are left out. Rule as the data show it: active = T/C of 150% or more; inactive = T/C below 125%.
The categories you may choose from are yes for active, no for inactive

Worked examples, 2 compounds total:
Compound | Group
c1ccc2cc(Nc3ccc(Nc4ccc5ccccc5c4)cc3)ccc2c1 | no
CC(C)CC(N)C(=O)NC1(C(=O)O)C2CC3CC(C2)CC1C3 (stereo not given) | no

Request: What call does the record list for CC12CCC3C(C1)C(C(=O)O2)C(=O)OC3(C)C (stereo not given) ?
Result: no

Request: Which result was noted for this compound in the test: Cc1ccc(/C=C/c2ccccc2)cc1
Result: no

Request: Please state the recorded outcome for this compound: C[C@@H]1CCC[C@@H](NC(=O)N(CCCl)N=O)C1
Result: yes

====

Listed here are compounds together with their documented T/C.
test system: L1210 leukemia ip in BDF1 mice, survival T/C; experiment: NCI In Vivo Anticancer Drug Screen. Data for tumor model L1210 Leukemia (intraperitoneal) in B6D2F1 (BDF1) mice; conditions: endpoint: mean survival time; dose: 400.0 mg/kg/injection; schedule: Q01DX001 (ip); vehicle: Klucel (hydroxypropylcellulose) (HPC); higher = longer survival
Inconclusive results and toxic doses are left out.

Request: Lookup: T/C / L1210 leukemia ip in BDF1 mice, survival T/C / NC(=S)N/N=C(/C(=O)O)c1ccc([N+](=O)[O-])cc1
Result: 96 % of control

====

tested on: L1210 leukemia ip in BDF1 mice, survival T/C; assay: NCI In Vivo Anticancer Drug Screen. Data for tumor model L1210 Leukemia (intraperitoneal) in B6D2F1 (BDF1) mice; settings: endpoint: mean survival time; dose: 50.0 mg/kg/injection; schedule: Q04DX003 (ip); vehicle: saline; higher = longer survival
Toxic doses and inconclusive results are not listed.
Endpoint Name: T/C

Compound | Result
CCC1C(=O)OCc2c1c(Br)cn(C)c2=O (configuration not stated) | 108 % of control

We next turn to a different compound, shown below.
Request: So what T/C did C=C(Cl)C[N+]12CN3CN(CN(C3)C1)C2 get with L1210 leukemia ip in BDF1 mice, survival T/C?
Result: 102 % of control

====

test system: L1210 leukemia ip in BDF1 mice, survival T/C; experiment: NCI In Vivo Anticancer Drug Screen. Data for tumor model L1210 Leukemia (intraperitoneal) in B6D2F1 (BDF1) mice; details: endpoint: mean survival time; dose: 100.0 mg/kg/injection; schedule: Q01DX009 (ip); vehicle: Klucel (hydroxypropylcellulose) (HPC); higher = longer survival
Toxic doses and inconclusive results are not listed.
List of T/C values.

Study these solved cases before continuing.
Molecule | T/C
CSc1ccc(NC(=O)COc2ccccc2)cc1 | 102 % of control
COc1ccc(C(C(N)=O)N2CCOCC2)cc1 (stereo unspecified) | 98 % of control
CN1C(=O)NC2ON=C(c3ccccc3)C2C1=O (stereo unspecified) | 103 % of control
CCCCCOc1ccc(C=Nc2ccc(C)cc2)cc1 | 98 % of control
Cc1cc2c(cc1C)NC(=O)C(C)CN2 (stereo unspecified) | 103 % of control

Request: So what's the measured T/C for this one? Cc1cc(C)c(S(=O)(=O)c2c(C)cc(C)c([N+](=O)[O-])c2C)c(C)c1[N+](=O)[O-]
Result: 98 % of control

Request: Reported T/C, molecule COc1cc(C=Nc2ccc(Oc3ccc(Cl)cc3)cc2)cc(OC)c1OC : ____
Result: 102 % of control
